Value source: patent US20210380703A1

Recorded measurements of optical density, one per entry
STUDY TARGET: human Fc (human)
TEST DETAILS: ELISA; negative control
# value in OD; strip the unit string

// solved cases for optical density follow
368_H01 (antibody, V domains shown) VH: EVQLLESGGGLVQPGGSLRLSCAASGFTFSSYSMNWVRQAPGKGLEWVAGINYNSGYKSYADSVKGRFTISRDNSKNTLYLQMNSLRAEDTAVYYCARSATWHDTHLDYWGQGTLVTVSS VL: DIQMTQSPSSLSASVGDRVTITCRASQSILSYLNWYQQKPGKAPKLLIYATTSLASGVPSRFSGSGSGTDFTLTISSLQPEDFATYYCQQSYDNPLTFGGGTKVEIK: 0.374
374_G07 (antibody, V domains shown) VH: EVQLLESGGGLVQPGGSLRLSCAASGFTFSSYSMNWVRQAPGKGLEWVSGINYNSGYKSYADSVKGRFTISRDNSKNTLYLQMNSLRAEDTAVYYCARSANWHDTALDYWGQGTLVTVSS VL: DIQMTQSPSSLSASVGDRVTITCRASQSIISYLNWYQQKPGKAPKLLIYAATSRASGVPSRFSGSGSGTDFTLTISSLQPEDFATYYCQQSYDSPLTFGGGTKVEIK: 0.214

Consider 374_G04 (antibody, V domains shown) VH: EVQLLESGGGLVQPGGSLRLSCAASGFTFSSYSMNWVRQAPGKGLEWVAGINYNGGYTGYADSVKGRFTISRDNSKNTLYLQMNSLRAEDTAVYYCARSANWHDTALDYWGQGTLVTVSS VL: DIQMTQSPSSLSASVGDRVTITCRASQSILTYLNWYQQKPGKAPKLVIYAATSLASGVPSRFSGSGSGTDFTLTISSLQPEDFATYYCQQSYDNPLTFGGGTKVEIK . Its measured optical density is 0.161

optical density for 375_C12 (antibody, V domains shown) VH: EVQLLESGGGLVQPGGSLRLSCAASGFTFSSYSMNWVRQAPGKGLEWVANINYNGGYTGYADSVKGRFTISRDNSKNTLYLQMNSLRAEDTAVYYCARSATWHDTHLDYWGQGTLVTVSS VL: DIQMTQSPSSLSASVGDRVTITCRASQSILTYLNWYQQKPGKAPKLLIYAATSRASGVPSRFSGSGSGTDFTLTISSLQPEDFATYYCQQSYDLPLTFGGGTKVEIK is 0.197

For this binder ( 374_E08 (antibody, V domains shown) VH: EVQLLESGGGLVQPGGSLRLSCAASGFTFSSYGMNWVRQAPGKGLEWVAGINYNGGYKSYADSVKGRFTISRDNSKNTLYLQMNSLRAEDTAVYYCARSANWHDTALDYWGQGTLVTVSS VL: DIQMTQSPSSLSASVGDRVTITCRASQSILSYLNWYQQKPGKAPKLLIYAATSRHSGVPSRFSGSGSGTDFTLTISSLQPEDFATYYCQQSYDLPLTFGGGTKVEIK ), measured optical density is 0.251
